Listing: phosphorylation enrichment of selected sequences
test system: Fer (mouse); experiment: phosphorylation enrichment, bacterial display (enrichment ratio); higher = better substrate or ligand; peptides without Tyr show the background;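 further: 11-residue human phosphosite peptides and single-mutation variants displayed on the E. coli surface, counted by deep sequencing, each peptide's frequency after selection divided by its frequency in the unselected input library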;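 further: frequency after pTyr selection over input frequency; kinase dosed for 20-30% of maximal phosphorylation in three min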

Residue sequence: LKGQVYILGGE [ASS1_Y359_R363G]
phosphorylation enrichment: 1.02

Residue sequence: KACKHYLTTRT [ZBTB5_Y118]
phosphorylation enrichment: 0.534

Residue sequence: CTTIHCNFMCN [TP53_Y234_Y234C_YF]
phosphorylation enrichment: 0.454

Residue sequence: NREGVYRVFAP [TGFBI_Y537_T538R]
phosphorylation enrichment: 0.397

Residue sequence: YTHSDYQYGQR [PKP2_Y166_S169G]
phosphorylation enrichment: 0.572

Residue sequence: HLELNYKEDEY [MME_Y502_Y497H]
phosphorylation enrichment: 0.344

Residue sequence: TESNNYIYKTL [FAM83B_Y637]
phosphorylation enrichment: 0.512

Residue sequence: LSNPAYRLLLA [DDR1_Y513]
phosphorylation enrichment: 0.981

Residue sequence: PTTKTYFPHFD [HBA1_Y43]
phosphorylation enrichment: 0.479

Residue sequence: KDHPDYKFQRR [SOX10_Y171_P175R_YF]
phosphorylation enrichment: 0.612

Residue sequence: YAREGYSALPQ [SARS2_Y52]
phosphorylation enrichment: 0.439

Residue sequence: VTAALYGRLFE [BTD_Y536_YF]
phosphorylation enrichment: 0.436

Residue sequence: QELRRYLKSGV [MICA_Y194]
phosphorylation enrichment: 0.626

Residue sequence: FTTIHYNFMCN [TP53_Y234_C229Y_YF]
phosphorylation enrichment: 0.565

// provenance: the supplement of paper PMC10065799
